Values from patent US20260176289A1

- tested.target: KRAS-G12D (Homo sapiens, UniProt P01116, G12D)
- Sequence (P01116 with tags, fused parts or gaps isoform P01116-2 G12D): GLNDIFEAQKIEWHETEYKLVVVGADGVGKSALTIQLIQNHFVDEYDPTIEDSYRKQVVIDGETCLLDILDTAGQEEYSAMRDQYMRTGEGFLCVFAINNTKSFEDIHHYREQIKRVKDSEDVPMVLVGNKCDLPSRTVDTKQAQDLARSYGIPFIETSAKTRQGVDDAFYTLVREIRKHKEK
- experiment.description: SOS-catalyzed nucleotide exchange assay (Procedure A, TR-FRET), KRAS-G12D
- Assay type: biochemical
- cond: nucleotide exchange, read-out: KRAS G12D GNE IC50
outcome.measure: pIC50
One number for each entry, as −log10 of the molar value.

Would you please look over these solved cases?
>  <compound>
C[C@@H]1CN(C[C@@]2(COc3nc(N4CCOC[C@@](C)(O)C4)c4c(n3)sc3c(-c5c(C6(F)CC6)c(Cl)cc6[nH]ncc56)nccc34)CC2(F)F)CCO1 [Ex-243]

>  <tested.target>
KRAS-G12D (Homo sapiens, UniProt P01116, G12D)

>  <pIC50>
7.06

$$$$
>  <compound>
C[C@@]1(O)COCCN(c2nc(OC[C@@]34CCCN3C/C(=C/F)C4)nc3sc4c(-c5c(C6CC6)c(Cl)cc6[nH]ncc56)nccc4c23)C1 [Ex-209]

>  <tested.target>
KRAS-G12D (Homo sapiens, UniProt P01116, G12D)

>  <pIC50>
8.54

$$$$
>  <compound>
C[C@H](N(C)C)[C@@]1(COc2nc(N3CCOC[C@@](C)(O)C3)c3c(n2)sc2c(-c4c(C5CC5)c(Cl)cc5[nH]ncc45)nccc23)CC1(F)F [Ex-215]

>  <tested.target>
KRAS-G12D (Homo sapiens, UniProt P01116, G12D)

>  <pIC50>
8.43

$$$$
>  <compound>
Cc1cc2[nH]ncc2c(-c2nccn3c2cc2nc(OC[C@@]45CCCN4C[C@H](F)C5)nc(N4CCOC[C@@](C)(O)C4)c23)c1C1CC1 [Ex-295]

>  <tested.target>
KRAS-G12D (Homo sapiens, UniProt P01116, G12D)

>  <pIC50>
7.14

$$$$

Hi team, please reply with pIC50 for each item in this list.
1. Cc1cc2[nH]ncc2c(-c2nccc3c2sc2nc(O[C@@H](C)[C@@H]4CCCN4C)nc(N4CCOC[C@@](C)(O)C4)c23)c1C(F)(F)F [Ex-204]
2. C[C@@]1(O)COCCN(c2nc(OC[C@@]34CCCN3C[C@H](F)C4)nc3sc4c(-c5c(-c6ccoc6)c(Cl)cc6[nH]ncc56)nccc4c23)C1 [Ex-71]
3. Cc1cc2[nH]ncc2c(-c2nccc3c2sc2nc(OC[C@@]45CCCN4C[C@H](F)C5)nc(N4CCOC[C@@](C)(O)C4)c23)c1C1=CCCC1 [Ex-140]
4. C[C@@]1(O)COCCN(c2nc(OC[C@]3(CN4CC5(CC5)C4)CC3(F)F)nc3sc4c(-c5c(C6(F)CC6)c(Cl)cc6[nH]ncc56)nccc4c23)C1 [Ex-250]
5. Cc1cc2[nH]ncc2c(-c2cncc3c2sc2nc(OC[C@@]45CCCN4C[C@H](F)C5)nc(N4CCOC[C@@](C)(O)C4)c23)c1C(F)(F)F [Ex-273]

A.
[6.47, 8.40, 7.16, 8.07, 6.44]

====

Would you mind telling me the reported pIC50 of each entry?
- tested.target: KRAS-G12V (Homo sapiens, UniProt P01116, G12V)
- Sequence (P01116 with tags, fused parts or gaps isoform P01116-2 G12V): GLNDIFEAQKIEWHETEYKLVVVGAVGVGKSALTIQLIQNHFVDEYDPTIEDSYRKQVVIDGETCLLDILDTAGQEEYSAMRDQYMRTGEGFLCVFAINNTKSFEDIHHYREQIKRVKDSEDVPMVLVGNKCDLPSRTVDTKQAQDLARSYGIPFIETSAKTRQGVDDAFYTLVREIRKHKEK
- experiment.description: SOS-catalyzed nucleotide exchange assay (Procedure A, TR-FRET), KRAS-G12V
- Format: biochemical
- cond: nucleotide exchange, read-out: KRAS G12V GNE IC50
One number for each entry, as −log10 of the molar value.

Please give pIC50, item by item, for the list that follows.
1. C[C@@]1(O)COCCN(c2nc(OC[C@@]34CCN3C[C@H](F)C4)nc3sc4c(-c5c(C6CC6)c(Cl)cc6[nH]ncc56)nccc4c23)C1 (single isomer, unassigned) [Ex-221]
2. CC1CCc2ccc(F)c(-c3nccc4c3sc3nc(OC[C@@]56CCCN5C[C@H](F)C6)nc(N5CCOC[C@@](C)(O)C5)c34)c21 (single isomer, unassigned) [Ex-118]
3. C#Cc1c(C)cc2[nH]ncc2c1-c1nccc2c3c(N4CCOC[C@@](C)(O)C4)nc(OC[C@@]45CCCN4C[C@H](F)C5)nc3n(C)c12 (single isomer, unassigned) [Ex-7]
4. C=C1CN2CCC[C@@]2(COc2nc(N3CCOC[C@@](C)(O)C3)c3c(n2)sc2c(-c4c(C5CC5)c(Cl)cc5[nH]ncc45)nccc23)C1 [Ex-224]
5. Cc1cc2[nH]ncc2c(-c2nccc3c2sc2nc(OC[C@@]45CCCN4C[C@H](F)C5)nc(N4CCCC5(CNC(=O)C5)C4)c23)c1C(F)(F)F (some centres unmarked) [Ex-193]
6. CN(C)C[C@@]1(COc2nc(N3CCOC[C@@](C)(O)C3)c3c(n2)sc2c(-c4c(C5CC5)c(Cl)cc5[nH]ncc45)nccc23)CC1(F)F [Ex-131]

A.
1: 7.67; 2: 6.91; 3: 7.52; 4: 7.92; 5: 6.32; 6: 7.74

====

- tested.target: KRAS-G12C (C51S/C80L/C118S) (Homo sapiens, UniProt P01116, C118S/C51S/C80L/G12C)
- Sequence (P01116 with tags, fused parts or gaps isoform P01116-2 G12C/C51S/C80L/C118S): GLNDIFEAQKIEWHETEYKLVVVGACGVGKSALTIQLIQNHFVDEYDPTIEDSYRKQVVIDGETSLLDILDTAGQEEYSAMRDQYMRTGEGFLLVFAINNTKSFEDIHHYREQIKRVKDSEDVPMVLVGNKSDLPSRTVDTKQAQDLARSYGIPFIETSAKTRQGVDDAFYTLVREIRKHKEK
- experiment.description: SOS-catalyzed nucleotide exchange assay (Procedure A, TR-FRET), KRAS-G12C
- Format: biochemical
- cond: nucleotide exchange, Procedure A; read-out: KRAS G12C GNE IC50
Output y for records whose IC50 is lower than 100 nM, n for records at or above 100 nM.

Check out these entries, answers already filled in.
>  <compound>
Cc1cc2[nH]ncc2c(-c2nccc3c2oc2nc(OC[C@]4(CN(C)C)CC4(F)F)nc(N4CCOC[C@@](C)(O)C4)c23)c1C(F)(F)F [Ex-291]

>  <group.label>
n

$$$$
>  <compound>
Cc1cc2[nH]nc(C#N)c2c(-c2nccc3c4c(N5CCOC[C@@](C)(O)C5)nc(OC[C@@]56CCCN5C[C@H](F)C6)nc4n(C)c23)c1C(F)(F)F (single isomer, unassigned) [Ex-4]

>  <group.label>
n

$$$$
>  <compound>
C#Cc1c(F)ccc2nc(N)cc(-c3nccc4c3sc3nc(OC[C@@]56CCCN5C[C@H](F)C6)nc(N5CCOC[C@@](C)(O)C5)c34)c12 [Ex-178]

>  <group.label>
n

$$$$
>  <compound>
C#Cc1cccc2cc3[nH]ncc3c(-c3nccc4c3sc3nc(OC[C@@]56CCCN5C[C@H](F)C6)nc(N5CCOC[C@@](C)(O)C5)c34)c12 [Ex-171]

>  <group.label>
y

$$$$
>  <compound>
CCc1c(C)cc2[nH]ncc2c1-c1nccc2c1sc1nc(OC[C@@]34CCCN3C[C@H](F)C4)nc(N3CCOC[C@@](C)(O)C3)c12 [Ex-36]

>  <group.label>
n

$$$$

Field: next compound
Q. Check if IC50 falls below 100 nM for C[C@@]1(O)COCCN(c2nc(OC[C@@]34CCCN3C[C@H](F)C4)nc3sc4c(-c5c(C(F)F)c(Cl)cc6[nH]ncc56)nccc4c23)C1 [Ex-133] .
A. y

====

Please go through the items and note down their pIC50.
- Test system: MKN-1 cells
- experiment.description: Cellular phospho-ERK assay, MKN-1 cells (amplified wild-type KRAS)
- Type: cell-based
- cond: Homo sapiens, 2 hours compound incubation, read-out: MKN1 pERK IC50
Numbers only, as −log10 of the molar value.

For each listed entry, give its pIC50.
1. CN1CCC[C@@]2(COc3nc(N4CCOC[C@@](C)(O)C4)c4c(n3)sc3c(-c5c(C6(F)CC6)c(Cl)cc6[nH]ncc56)nccc34)CCC[C@@H]12 [Ex-268]
2. C[C@@]1(O)COCCN(c2nc(OC[C@@]34CCCN3C[C@H](F)C4)nc3sc4c(-c5c(C6CC6)c(Cl)cc6[nH]ncc56)nccc4c23)C1 [Ex-144]
3. C[C@@]1(O)COCCN(c2nc(OC[C@@]34CCCN3C[C@H](F)C4)nc3sc4c(-c5c6cn[nH]c6cc6cccc(Cl)c56)nccc4c23)C1 [Ex-161]
4. C#CC1=CCCc2cc3[nH]ncc3c(-c3nccc4c3sc3nc(OC[C@@]56CCCN5C[C@H](F)C6)nc(N5CCOC[C@@](C)(O)C5)c34)c21 [Ex-173]

A.
[7.51, 7.27, 7.55, 7.24]

====

- tested.target: KRAS-G12V (Homo sapiens, UniProt P01116, G12V)
- experiment.description: SOS-catalyzed nucleotide exchange assay (Procedure A, TR-FRET), KRAS-G12V
- Type: biochemical
- cond: nucleotide exchange, read-out: KRAS G12V GNE IC50
outcome.measure: pIC50
One number for each entry, as −log10 of the molar value.

Worked cases, answers included:
>  <compound>
F[C@H]1CN2CCC[C@@]2(COc2nc(N3CCCOCC3)c3c(n2)sc2c(-c4c(C5CC5)c(Cl)cc5[nH]ncc45)nncc23)C1 [Ex-286]

>  <pIC50>
7.30

$$$$
>  <compound>
C=C(C)c1c(Cl)cc2[nH]ncc2c1-c1nccc2c1sc1nc(OC[C@@]34CCCN3C[C@H](F)C4)nc(N3CCOC[C@@](C)(O)C3)c12 [Ex-142]

>  <pIC50>
7.53

$$$$
>  <compound>
C[C@@H]1CCCc2cc3[nH]ncc3c(-c3nccc4c3sc3nc(OC[C@@]56CCCN5C[C@H](F)C6)nc(N5CCOC[C@@](C)(O)C5)c34)c21 [Ex-116]

>  <pIC50>
7.75

$$$$
>  <compound>
Cc1cc2[nH]ncc2c(-c2nccn3c2c(Cl)c2nc(OC[C@@]45CCCN4C[C@H](F)C5)nc(N4CCOC[C@@](C)(O)C4)c23)c1C(F)(F)F [Ex-299]

>  <pIC50>
7.03

$$$$

Turning to the following compound.
Q. State its pIC50 for this compound: Cc1cc2[nH]ncc2c(-c2nccc3c4c(N5CCCC6(CC(=O)N6)C5)nc(OC[C@@]56CCCN5C[C@H](F)C6)nc4n(C)c23)c1C(F)(F)F (single isomer, unassigned) [Ex-21]
A. 7.46
